Recorded values, source paper PMC2756588.

Biological target: T1, Bud14, P27637
T1 sequence (P27637 247-328, looked up): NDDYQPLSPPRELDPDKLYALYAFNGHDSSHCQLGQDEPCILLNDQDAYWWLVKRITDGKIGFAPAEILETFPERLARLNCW
Test: SPOT array
Conditions: median of control spots 956
value type: SPOT intensity
Number only, no unit.

Some binders with recorded SPOT intensity:
LYKRKPILLPDPKPL = 1
PKRRAPPPVPKKPSS = 1

Inquiry: Give the measured SPOT intensity for LKVTPGRRAPTISKI
Reply text: 8

Inquiry: Give the measured SPOT intensity for MAMRPIPPLPTESEY
Reply text: 0
